test conditions: human;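 also: steatosis confirmed by histopathology, value is the count of indexed references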
measured attribute: Hepatotoxicity (steatosis)
Answers are plain numbers.

Look over these answered cases.
CC1=C(/C=C/C(C)=C/C=C/C(C)=C\C(=O)O)C(C)(C)CCC1 [ISOTRETINOIN]	1
CC(C(=O)O)c1ccc(CC2CCCC2=O)cc1 (centres undefined) [LOXOPROFEN]	0
CCOC(=O)C1(c2ccccc2)CCN(CCC(O)c2ccccc2)CC1 (centres undefined) [PHENOPERIDINE]	0
CCC1(c2ccccc2)C(=O)NC(=O)NC1=O [PHENOBARBITAL]	1
CC(C)Nc1cccnc1N1CCN(C(=O)c2cc3cc(NS(C)(=O)=O)ccc3[nH]2)CC1 [DELAVIRDINE]	0
O=c1[nH]c(=O)n([C@@H]2O[C@H](CO)[C@@H](O)[C@@H]2O)cc1/C=C/Br [SORIVUDINE]	0

Fill in Hepatotoxicity (steatosis) for each of the 3 compounds listed.
1. CCC(C(=O)NC(N)=O)c1ccccc1 (centres undefined) [PHENETURIDE]
2. CC/C(=C(/CC)c1ccc(OP(=O)(O)O)cc1)c1ccc(OP(=O)(O)O)cc1 [DIETHYLSTILBESTROL DIPHOSPHATE]
3. O=C(CCCN1CCN(c2ccc(F)cc2)CC1)NC1c2ccccc2CSc2ccccc21 (centres undefined) [MONATEPIL]

a:
[0, 1, 0]
